Provenance of the data: patent US20050020519A1

Target: T1, human insulin-regulated aminopeptidase (IRAP) / angiotensin IV (AT4) receptor (human, UniProt Q9UIQ6 1-1025)
T1 construct: whole, on cells; also called AT4 receptor/IRAP; hIRAP
T1 sequence (Q9UIQ6 whole entry): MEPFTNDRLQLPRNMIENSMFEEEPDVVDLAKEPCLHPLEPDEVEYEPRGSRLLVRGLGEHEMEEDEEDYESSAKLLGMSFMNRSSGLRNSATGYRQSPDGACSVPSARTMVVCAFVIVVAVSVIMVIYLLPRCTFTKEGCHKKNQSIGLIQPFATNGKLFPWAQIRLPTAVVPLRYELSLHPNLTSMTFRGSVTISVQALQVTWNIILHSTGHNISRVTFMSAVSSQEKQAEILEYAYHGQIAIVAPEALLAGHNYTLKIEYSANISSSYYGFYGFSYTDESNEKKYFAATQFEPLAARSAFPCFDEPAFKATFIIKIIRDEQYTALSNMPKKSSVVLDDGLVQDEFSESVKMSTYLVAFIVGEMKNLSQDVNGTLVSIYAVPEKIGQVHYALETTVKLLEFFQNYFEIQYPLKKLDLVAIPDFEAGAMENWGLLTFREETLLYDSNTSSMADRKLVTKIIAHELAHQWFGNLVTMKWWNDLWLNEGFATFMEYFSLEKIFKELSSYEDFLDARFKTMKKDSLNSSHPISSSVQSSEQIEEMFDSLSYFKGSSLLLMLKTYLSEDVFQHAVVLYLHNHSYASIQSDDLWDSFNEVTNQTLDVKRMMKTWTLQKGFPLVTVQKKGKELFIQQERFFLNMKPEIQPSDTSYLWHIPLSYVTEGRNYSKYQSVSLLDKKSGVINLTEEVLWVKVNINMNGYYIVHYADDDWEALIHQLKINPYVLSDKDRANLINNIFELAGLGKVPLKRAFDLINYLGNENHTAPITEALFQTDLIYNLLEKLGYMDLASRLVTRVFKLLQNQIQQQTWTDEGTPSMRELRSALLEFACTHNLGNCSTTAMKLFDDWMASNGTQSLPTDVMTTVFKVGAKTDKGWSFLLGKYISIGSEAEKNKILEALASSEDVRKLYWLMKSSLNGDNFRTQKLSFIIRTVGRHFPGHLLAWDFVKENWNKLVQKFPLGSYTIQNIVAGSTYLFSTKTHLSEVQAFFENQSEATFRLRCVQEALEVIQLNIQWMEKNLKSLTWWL
Assay: competitive inhibition of L-leucine-β-naphthylamide cleavage by solubilised membranes of IRAP-transfected HEK 293 cells; Ki from IC50=Ki(1+[S]/Km)
readout-type: pKi
Answers are plain numbers, as −log10 of the molar value.

Asked: pKi for LVVYPWTQRF (Globin fragment purified from sheep cerebral cortex; synthetic peptide used in the assays; also called LVV-H7; LV-H7) [LVV-hemorphin 7 (LVVYPWTQRF)] ?
Given back: 6.07
